- targetSystem: Human PDGFRα, cytoplasmic domain (GST-PDGFRα) (Homo sapiens, UniProt P16234)
- Sequence (P16234 550-1089 T674I): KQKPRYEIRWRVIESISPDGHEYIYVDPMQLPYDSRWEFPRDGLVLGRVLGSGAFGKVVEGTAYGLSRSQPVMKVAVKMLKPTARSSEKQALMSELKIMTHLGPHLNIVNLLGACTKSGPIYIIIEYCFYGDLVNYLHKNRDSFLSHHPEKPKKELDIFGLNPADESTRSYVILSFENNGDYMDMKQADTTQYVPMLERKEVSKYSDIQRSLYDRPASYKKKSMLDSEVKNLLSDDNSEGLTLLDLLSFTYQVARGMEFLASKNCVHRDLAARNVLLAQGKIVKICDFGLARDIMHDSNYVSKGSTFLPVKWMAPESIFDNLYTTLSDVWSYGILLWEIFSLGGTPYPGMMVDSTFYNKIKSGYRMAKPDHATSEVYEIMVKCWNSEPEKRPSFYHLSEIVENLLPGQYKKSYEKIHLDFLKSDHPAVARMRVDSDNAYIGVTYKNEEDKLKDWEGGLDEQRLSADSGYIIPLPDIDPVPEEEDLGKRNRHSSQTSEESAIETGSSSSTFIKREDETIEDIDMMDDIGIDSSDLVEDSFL
- assayText: Human PDGFRα biochemical inhibition assay (off-chip Mobility Shift Assay)
Reported IC50 values are given for each entry in this list.
reportedMetric: IC50

> print(dat)
                                   compound        measured
1  CCn1cc2ncc(N[C@@H](C)c3cccc(NC(=O)c4ccc(OC(F)(F)F)nc4)c3)nc2n1 [Compound 282]        < 300 nM
2  CCn1cc2ncc(N[C@@H](C)c3cccc(NC(=O)Cc4cncc(F)c4)c3)nc2n1 [Compound 623]  300 to 1000 nM
3  CCn1cc2ncc(N[C@@H](C)c3cccc(NC(=O)c4ccc(CN5CC(F)C5)c(C)c4)c3)nc2n1 [Compound 497]        < 300 nM
4  CCn1cc2ncc(N[C@@H](C)c3cccc(NC(=O)c4ccc(CN5CCN(C)CC5)c(Cl)c4)c3)nc2n1 [Compound 417]        < 300 nM

====

Form: system (Human PDGFRβ, cytoplasmic domain (GST-PDGFRβ) (Homo sapiens)), quantity (IC50), values below.
reportedMetric: IC50

> print(dat)
                                   molecule     measured
1  CCn1cc2ncc(N[C@@H](C)c3cccc(NC(=O)Nc4ccc(NC)nc4)c3)nc2n1 [Compound 738]       ≥ 1 µM
2  C[C@H](Nc1cnc2cnn(C)c2n1)c1cccc(NC(=O)c2cnc3ccn(C)c3c2)c1 [Compound 46]     < 0.3 µM
3  Cc1ncc(C(=O)Nc2cccc([C@H](C)Nc3cnc4cnn(C)c4n3)c2)cc1C(F)(F)F [Compound 124]     < 0.3 µM
4  Cc1cncc(C(=O)Nc2cccc([C@H](C)Nc3cnc4cccnc4n3)c2)c1 [Compound 5]  0.3 to 1 µM
5  C[C@H](Nc1cnc2cnn(C)c2n1)c1cccc(NC(=O)C2CC2C(F)(F)F)c1 (some centres unmarked) [Compound 52]       ≥ 1 µM
6  CCn1cc2ncc(N[C@@H](C)c3cc(NC(=O)c4ccc(C(F)(F)F)nc4)ccc3C(F)(F)F)nc2n1 [Compound 459]       ≥ 1 µM
7  Cc1cncc(C(=O)Nc2cccc([C@H](C)Nc3cnc4ccn(CCN5CCOCC5)c4n3)c2)c1 [Compound 85]       ≥ 1 µM
8  CCc1ccc(C(=O)Nc2cccc([C@H](C)Nc3cnc4cnn(C)c4n3)c2)cc1C [Compound 251]     < 0.3 µM

====

- targetSystem: Human PDGFRβ, cytoplasmic domain (GST-PDGFRβ) (Homo sapiens, UniProt P09619)
- Sequence (P09619 with tags, fused parts or gaps): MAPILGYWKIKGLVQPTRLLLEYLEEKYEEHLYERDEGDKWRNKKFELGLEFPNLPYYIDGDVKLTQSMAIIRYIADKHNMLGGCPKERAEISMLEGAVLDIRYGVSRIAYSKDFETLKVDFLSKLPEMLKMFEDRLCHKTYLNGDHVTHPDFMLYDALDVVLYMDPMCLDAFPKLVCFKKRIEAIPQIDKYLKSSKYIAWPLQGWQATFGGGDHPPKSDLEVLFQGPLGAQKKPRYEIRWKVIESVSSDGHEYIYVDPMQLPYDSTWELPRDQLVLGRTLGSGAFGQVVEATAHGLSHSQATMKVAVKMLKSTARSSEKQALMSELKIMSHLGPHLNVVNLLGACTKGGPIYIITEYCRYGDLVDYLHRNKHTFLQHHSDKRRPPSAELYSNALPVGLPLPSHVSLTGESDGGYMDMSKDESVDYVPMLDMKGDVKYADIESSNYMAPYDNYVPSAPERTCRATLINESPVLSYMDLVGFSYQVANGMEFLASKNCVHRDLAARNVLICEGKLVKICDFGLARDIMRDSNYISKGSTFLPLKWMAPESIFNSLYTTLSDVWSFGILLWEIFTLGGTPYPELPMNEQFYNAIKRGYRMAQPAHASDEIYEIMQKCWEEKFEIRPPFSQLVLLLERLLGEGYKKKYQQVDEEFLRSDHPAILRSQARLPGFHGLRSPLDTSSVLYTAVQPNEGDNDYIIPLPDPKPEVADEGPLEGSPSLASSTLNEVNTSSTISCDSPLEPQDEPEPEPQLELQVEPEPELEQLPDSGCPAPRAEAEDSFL
pIC50: −log10 of the molar value.
reportedMetric: pIC50

> print(dat)
                                    molecule      measured
 1  Cc1c[nH]c2ncc(N[C@@H](C)c3cccc(NC(=O)c4ccc(C(F)F)s4)c3)nc12 [Compound 560]        > 6.52
 2  CCn1cc2ncc(N[C@@H](C)c3cccc(NC(=O)c4ccc(CN5CC[C@@H](F)C5)c(C)c4)c3)nc2n1 [Compound 469]        > 6.52
 3  CCn1cc2ncc(N[C@@H](C)c3cc(NC(=O)Cc4ccc(C)cn4)ccc3F)nc2n1 [Compound 689]        ≤ 6.00
 4  CCn1cc2ncc(N[C@@H](C)c3cccc(NC(=O)Cc4ccc(OC)c(F)c4)c3)nc2n1 [Compound 626]        ≤ 6.00
 5  CCn1cc2ncc(N[C@@H](C)c3cc(NC(=O)Cc4ccc(C5CC5)nc4)ccc3C)nc2n1 [Compound 665]        ≤ 6.00
 6  CCn1cc2ncc(N[C@@H](C)c3cc(NC(=O)Cc4cc(C)c(C)cn4)ccc3C)nc2n1 [Compound 694]        > 6.52
 7  CCn1cc2ncc(N[C@@H](C)c3cccc(NC(=O)c4cnn(CC5CC5)c4)c3)nc2n1 [Compound 300]        > 6.52
 8  Cc1cc(C(=O)Nc2cccc([C@H](C)Nc3cnc4cnn(C)c4n3)c2)cnn1 [Compound 132]        ≤ 6.00
 9  CCn1cc2ncc(N[C@@H](C)c3cccc(NC(=O)c4cnc(N(C)C)c(C)c4)c3)nc2n1 [Compound 348]        > 6.52
10  COC(=O)c1ccc(C(=O)Nc2cccc([C@H](C)Nc3cnc4cnn(C)c4n3)c2)cc1OC [Compound 261]        > 6.52
11  C[C@H](Nc1cnc2cnn(C)c2n1)c1cccc(NC(=O)c2ccc(OC(F)(F)F)nc2)c1 [Compound 119]        > 6.52
12  Cc1cncc(C(=O)Nc2cccc([C@H](C)Nc3cnc4cnn(-c5ccccn5)c4n3)c2)c1 [Compound 272]        > 6.52
13  CCn1cc2ncc(N[C@@H](C)c3cc(NC(=O)c4cnc(N5CCN(C)CC5)c(C)c4)ccc3F)nc2n1 [Compound 432]        > 6.52
14  CCn1cc2ncc(N[C@@H](C)c3cccc(NC(=O)c4ccc(CN5CCN(C)C(=O)C5)c(C)c4)c3)nc2n1 [Compound 479]        > 6.52
15  COc1ccc(-n2ncc3ncc(N[C@@H](C)c4cccc(NC(=O)c5cncc(C)c5)c4)nc32)cc1OC [Compound 185]        > 6.52
16  CCn1cc2ncc(N[C@@H](C)c3cccc(NC(=O)c4cc(F)c(CN5CCCC5)c(Cl)c4)c3)nc2n1 [Compound 488]        > 6.52
17  Cc1cc(C(=O)Nc2cccc([C@H](C)Nc3cnc4cnn(C)c4n3)c2)ccc1C(=O)OCCO [Compound 257]        > 6.52
18  CCn1cc2ncc(N[C@@H](C)c3cccc(NC(=O)Cc4ccc(C(F)(F)F)c(F)c4)c3)nc2n1 [Compound 628]        ≤ 6.00
19  Cc1c[nH]c2ncc(N[C@@H](C)c3cccc(NC(=O)c4cnn(C5CC5)c4)c3)nc12 [Compound 573]        > 6.52
20  C[C@H](Nc1cnc2[nH]ccc2n1)c1cc(NC(=O)c2ccc(OC(F)F)nc2)ccc1F [Compound 596]        > 6.52
21  C[C@H](Nc1cnc2[nH]cc(-c3cnn(C)c3)c2n1)c1cccc(NC(=O)c2ccc(N3CCCC3)nc2)c1 [Compound 585]        > 6.52
22  C[C@H](Nc1cnc2[nH]cc(-c3cnn(C)c3)c2n1)c1cccc(NC(=O)c2cnc(C(F)(F)F)s2)c1 [Compound 582]  6.00 to 6.52
23  COc1ccc2cc(N[C@@H](C)c3cccc(NC(=O)c4cncc(C)c4)c3)cnc2c1 [Compound 28]        > 6.52
24  CC(C)n1ccc(C(=O)Nc2cccc([C@H](C)Nc3cnc4cnn(C)c4n3)c2)n1 [Compound 156]        > 6.52
25  CCn1cc2ncc(N[C@@H](C)c3cc(NC(=O)Cc4ccc(C)nc4)ccc3C)nc2n1 [Compound 664]        ≤ 6.00
26  Cc1cncc(C(=O)Nc2cccc([C@H](C)Nc3cnc4ccc(C(F)(F)F)cc4n3)c2)c1 [Compound 34]  6.00 to 6.52
27  COc1ccc2nc(N[C@@H](C)c3cccc(NC(=O)c4cncc(C)c4)c3)cnc2c1 [Compound 33]        > 6.52
28  Cc1cncc(C(=O)Nc2cccc([C@H](C)Nc3cnc4cn(C)nc4n3)c2)c1 [Compound 274]        ≤ 6.00
29  C[C@H](Nc1cnc2cnn(C)c2n1)c1cccc(NC(=O)c2ccc(C3CC3)nc2)c1 [Compound 116]        > 6.52
30  COc1ccc(C(=O)Nc2cccc([C@H](C)Nc3cnc4cnn(C)c4n3)c2)cc1OC [Compound 203]        > 6.52
